# System: SN12C
# Test Protocol: NCI tumour cell line growth inhibition, 48 h
Calls of active or inactive are those of the source. Cut-off read from the data, not from the text of the source: active = GI50 up to about 1.1 µM and inactive = higher.
Possible outcomes: label 1 (active), label 0 (inactive)

> print(dat)
                                    compound  class.assignment
 1  CN(C)CC1CCC/C(=C\c2ccc(OC(=O)/C=C/c3ccc(Cl)cc3)cc2)C1=O (stereo not drawn)           label 0
 2  CCc1nc(N)nc(N)c1-c1ccc(N(C)Cc2ccccc2)c([N+](=O)[O-])c1           label 0
 3   O=C(O)Cn1cc([N+](=O)[O-])c(=O)c2ccccc21           label 0
 4                   O=C(O)CSc1ccc(N=C=S)cc1           label 0
 5  COc1ccc2c(c1)OCC1(O)Cc3ccccc3OC21 (stereo not drawn)           label 0
 6        O=C(N/N=C\c1cccc2ccccc12)Nc1ccccc1           label 0
 7  FC(F)(F)C12C34C=CC5(CCC6(C=CC1(CC3)O6)C52C(F)(F)F)O4 (stereo not drawn)           label 0
 8                   CCc1nc2c(O)ccc(O)c2nc1C           label 0
 9    O=P(Oc1ccc(Cl)cc1)(Oc1ccc(Cl)cc1)N1CC1           label 0
10  O=C1C=CC(=O)c2c1ccc1c3ccccc3n(CCCCCn3c4ccccc4c4ccc5c(c43)C(=O)C=CC5=O)c21           label 0
11  CC1(C)[C@@H]2CC[C@@]1(C)[C@@H]1O[C@@H](O[C@@H](CN)c3cc(Cl)c(OCc4ccccc4)c(OCc4ccccc4)c3)C[C@H]21           label 1
12  NS(=O)(=O)C1CCCCC1C(=O)NNC(=O)C(=O)Nc1nnc(S)[nH]1 (stereo not drawn)           label 0
13              Nc1ccc(CCSSCCc2ccc(N)cc2)cc1           label 0
14                    Clc1ccc(Cl)c2[s+]snc12           label 0
15  CC(Oc1ccc(OCC2CCCCC2)cc1)C(=O)NCc1ccco1 (stereo not drawn)           label 0
16  C=C1C(=O)OC2CC1C(O)C/C(C)=C/CC/C(C)=C/C(O)CC2C (stereo not drawn)           label 0
17   C=CCSC1=N/C(=C\c2ccc(OC)cc2)C(=O)N1CC=C           label 0
18  CNCCNc1ccc2c3c(nn2CCNCCO)-c2c(O)ccc(O)c2C(=O)c13           label 1
19    c1ccc2c(c1)[nH]c1c2ncc2[nH]c3ccccc3c21           label 0
20  O=C1CCCCCCCCCCC1CN(Cc1ccccc1)Cc1ccccc1 (stereo not drawn)           label 0
21          COc1ccc(C(=O)Cc2ccc(Br)cc2)cc1OC           label 0
22  COc1cccc(OC)c1C1ON=C(c2ccccc2)N1C12CC3CC(CC(C3)C1)C2 (stereo not drawn)           label 0
23  OC[C@H]1CC(c2nn[nH]n2)[C@H](O)[C@@H]1O (stereo partly drawn)           label 0

====

# Test system: HCC 2998
# Test Protocol: NCI tumour cell line growth inhibition, 48 h
Activity calls are given as the source filed them. Rule as the data show it: active = GI50 up to about 1.1 µM and inactive = higher.
Each item that follows carries a reported GI50.
Readout Label: GI50

> print(dat)
                                    compound  test.target  readout.label               result
 1  C=C(C)[C@@H]1CC[C@@H](C)[C@](O)([C@@H]2C[C@@H]([C@H](COC(=O)c3ccccc3)OC(=O)c3ccccc3)OC2=O)C1     HCC 2998           GI50  > 100 µM (inactive)
 2  CN(/N=C/c1cccs1)c1ccc(Cl)cc1[N+](=O)[O-]     HCC 2998           GI50   25.8 µM (inactive)
 3  Fc1ccc(C2SCc3nc4ccccc4n32)c(F)c1 (stereo not given)     HCC 2998           GI50   98.6 µM (inactive)
 4  CN1CCN(C(=O)c2cn(Cc3cncn3Cc3ccc4c(c3)OCO4)cc2-c2cccc3ccccc23)CC1     HCC 2998           GI50   10.6 µM (inactive)
 5  Nc1nc2c(ncn2C2CCC(CO)O2)c(=O)n1C(=O)c1ccccc1 (stereo not given)     HCC 2998           GI50  > 100 µM (inactive)
 6                CC(C)CC1C(=O)OC(C)(C)OC1=O     HCC 2998           GI50  > 100 µM (inactive)
 7                   CCCCn1c(O)nc2c(N)ncnc21     HCC 2998           GI50  > 100 µM (inactive)
 8  O=C(OCC(OC(=O)c1ccccc1)C(OC(=O)c1ccccc1)C(OC(=O)c1ccccc1)c1cnn(-c2ccccc2)n1)c1ccccc1 (stereo not given)     HCC 2998           GI50  > 100 µM (inactive)
 9  COc1cc(Oc2c(C)c(Cl)c(OC)c(Cl)c2OC)c2c(c1Cl)COC2=O     HCC 2998           GI50   26.6 µM (inactive)
10  O=C1OC(c2ccccc2)=N/C1=C\c1ccc(N(CCCl)CCCl)cc1     HCC 2998           GI50  > 100 µM (inactive)

====

# Tested on: OVCAR-3
# Test Protocol: NCI tumour cell line growth inhibition, 48 h
Activity calls are given as the source filed them. Cut-off read from the data, not from the text of the source: active = GI50 up to about 1.1 µM and inactive = higher.
Possible outcomes: active, inactive

Compound	Test Target	Class Assignment
C/C(CC(=O)Nc1cccc([N+](=O)[O-])c1)=N\NC(=O)CC#N	OVCAR-3	inactive
CC[C@]1(O)C[C@H]2CN(CCc3c([nH]c4ccccc34)[C@@](C(=O)OC)(c3cc4c(cc3OC)N(C)[C@H]3[C@@](O)(C(=O)OC)[C@H](OC(C)=O)[C@]5(CC)C=CCN6CC[C@]43[C@@H]65)C2)C1	OVCAR-3	active
CC(=O)/C=C1\Nc2ccccc2N\C1=C/C(C)=O	OVCAR-3	inactive
CCc1nc2c(O)ccc(O)c2nc1C	OVCAR-3	inactive
CC(C)NC(=O)OCc1c2c(n(C)c1COC(=O)NC(C)C)-c1ccccc1CC2	OVCAR-3	inactive
N#CC1(C2SCC[S+]2[O-])C2=C(C(=O)c3ccccc3C2=O)N2CCCC21 (stereo not given)	OVCAR-3	active
COC(=O)Cc1c(-c2c(CC(=O)OC)c3ccccc3n2C2OC(COC(C)=O)C(OC(C)=O)C(OC(C)=O)C2OC(C)=O)[nH]c2ccccc12 (stereo not given)	OVCAR-3	inactive
O=C1CCCCCCCCCCC1CN(Cc1ccccc1)Cc1ccccc1 (stereo not given)	OVCAR-3	inactive
CC1NS(=O)(=O)N(C)C1=O (stereo not given)	OVCAR-3	inactive
O=C(Nc1ccc(Cl)cc1Cl)C(=O)Nn1c(S)nc2ccccc2c1=O	OVCAR-3	inactive

====

# Test system: DU-145
# Test Protocol: NCI tumour cell line growth inhibition, 48 h
The source made the active and inactive calls. No stated cut-off is given here; in the data, active = GI50 up to about 1.1 µM and inactive = higher.
Possible outcomes: active, inactive

> print(dat)
                                    molecule  class.assignment
 1           Cc1c2ccccc2c(CSC(=N)N)c2ccccc12            active
 2  Cc1ccc2c(c1)CC1(C2=O)[C@H](c2ccccc2)C2C(=O)c3ccc(C)cc3C2[C@H]1c1ccccc1 (stereo not given in full)          inactive
 3       FC(F)(F)c1ccc2c(-c3cc[nH]c3)ccnc2c1          inactive
 4  O=C1c2ccccc2C2C1C(c1ccccc1)C1(Cc3ccccc3C1=O)C2c1ccccc1 (stereo not given)          inactive
 5    CC(C)(C)OC(=O)NCC(C#N)CNC(=O)OC(C)(C)C          inactive
 6  COC(=O)Cc1c(-c2c(CC(=O)OC)c3ccccc3n2C2OC(COC(C)=O)C(OC(C)=O)C(OC(C)=O)C2OC(C)=O)[nH]c2ccccc12 (stereo not given)          inactive
 7  COC(CNC(=O)C(C)NC(=O)C(C)NC(=O)c1ccccc1)OC (stereo not given)          inactive
 8  c1ccc(Cn2c(-c3ccc(-c4ccccc4)cc3)cc3ccccc32)cc1          inactive
 9  COc1cc(/C=C2\CC(C)C/C(=C\c3ccc(O)c(OC)c3)C2=O)ccc1O (stereo not given)          inactive
10  NC(=O)c1ncn(C2C=CC(CP(=O)(O)O)C2)c1N (stereo not given)          inactive

====

# Tested on: MCF7
# Test Protocol: NCI tumour cell line growth inhibition, 48 h
Active and inactive are the calls of the source. Rule as the data show it: active = GI50 up to about 1.1 µM and inactive = higher.
Readout Label: GI50

> print(dat)
                                    compound  test.target  readout.label               result
 1  CC1(C)[C@@H]2CC[C@@]1(C)[C@@H]1O[C@@H](O[C@@H](CN)c3cc(Cl)c(OCc4ccccc4)c(OCc4ccccc4)c3)C[C@H]21         MCF7           GI50    0.134 µM (active)
 2  N#Cc1ccc(C2NN=CC23C(=O)c2ccccc2OC3c2ccccc2)cc1 (stereo unspecified)         MCF7           GI50   34.2 µM (inactive)
 3               CCCCCCCCCCCCCCCCSS(C)(=O)=O         MCF7           GI50   27.6 µM (inactive)
 4  CC1=C(C(=O)c2ccccc2)C23C(=O)N(c4ccccc4)C(=O)C2=C(O)C=CC3(O)N1 (stereo unspecified)         MCF7           GI50   38.3 µM (inactive)
 5   O=C(O)Cn1cc([N+](=O)[O-])c(=O)c2ccccc21         MCF7           GI50  > 100 µM (inactive)
 6  CCCCCCCCOc1ccc(/C=C/C2=[N+](CCO)CCO2)cc1         MCF7           GI50   4.65 µM (inactive)
 7  NS(=O)(=O)c1ccc(NNc2c3ccccc3nc3ccccc23)cc1         MCF7           GI50   10.9 µM (inactive)
 8  N#CC1=C2SCCN2C(=O)C(C#N)C12CCCCC2 (stereo unspecified)         MCF7           GI50  > 100 µM (inactive)
 9    O=C1Nc2ccccc2S/C1=C\c1ccc(C(F)(F)F)cc1         MCF7           GI50  > 100 µM (inactive)
10          Cc1ccc2c(=O)c(-c3nnsn3)c[nH]c2n1         MCF7           GI50  > 100 µM (inactive)
11     N#Cc1ccc(Nc2nc3[nH]cnc3c(=O)[nH]2)cc1         MCF7           GI50  > 100 µM (inactive)
